system: HFF; experiment: Visual cytotoxicity was scored on HFF cells at time of HCMV plaque enumeration; type: functional, cell-based; settings: Homo sapiens
measuredParameter: IC50

Tell me its IC50 given OC[C@H]1O[C@@H](n2c(SCc3ccccc3)cc3cc(Cl)c(Cl)cc32)CC1O (stereo partly specified) as the entry. 32 µM

Indicate the recorded IC50 value for this compound: OC[C@H]1OC(n2c(Cl)cc3cc(Cl)c(Cl)cc32)[C@H](O)[C@@H]1O (stereo partly specified) > 100 µM

Report IC50 for OC[C@H]1OC(n2c(Br)cc3cc(Cl)c(Cl)cc32)[C@H](O)[C@@H]1O (stereo partly specified) 100 µM

State its IC50: `O=C(O)P(=O)(O)O` > 100 µM

Please indicate IC50 recorded for `Nc1nc2c(ncn2COC(CO)CO)c(=O)[nH]1` > 100 µM

Note IC50 for the compound shown: `Clc1cc2cc(Br)[nH]c2cc1Cl` 32 µM

---

experiment: ELISA assay was performed using BSC-1 cells to determine activity against HSV-1; format: functional, cell-based, Cercopithecidae
I'd be grateful if you could share measured pIC50 for these entries.
Would you please state pIC50, meaning minus log10 of the concentration in mol/L, as a bare number?

Note down pIC50 recorded for `Nc1nc2c(ncn2COC(CO)CO)c(=O)[nH]1` 5.46

Identify pIC50 associated with the molecule OC[C@H]1O[C@@H](n2c(SCc3ccccc3)cc3cc(Cl)c(Cl)cc32)CC1O (stereo partly specified) 4.40

Let me know recorded pIC50 for `Clc1cc2cc(Br)[nH]c2cc1Cl` , thanks. 4.15

Give a short answer stating reported pIC50 for `OC[C@H]1O[C@@H](n2c(Cl)nc3cc(Cl)c(Cl)cc32)[C@H](O)[C@@H]1O` . 3.99
